Tested on: MS2 coat protein
test.summary: apparent KD of MS2 coat protein; designed switch direction (-1 OFF switch, 1 ON switch): -1; higher = weaker reporter binding
protocol.conditions: input ligand: microRNA oligo, concentration not stated

monomer.sequence	apparent KD of MS2 coat protein, µM
AGAUAGUGGUGAGGAUAUCAGAAUAGAAAGAAAUGAGAAGGCACACAUGAGGAUCACCCAUGUGAGUUCUUGAGAUUACAUGGU [Prohibition 41 - Jieux - Exclusion NG 1] (Eterna round: R96, puzzle: Exclusion NG 1)	0.0144
ACAUGUAAUGCAGGAUAUGGGACACAUGAGGAUCACCCAUGUGACCAUAUGUAAUGCUAAGAGUCUCAGAAGGGUAUGUACAUG [Ex NG2 #46] (Eterna round: R96, puzzle: Exclusion NG 2)	0.00756
CUUUUGUGAGGAUAUUAGUAGUAAAUAAAUAAAUUUACUACUGAGAAGGCACAUGAGGAUCACCCAUGUUCCUC [salish99_ex4_r3_060] (Eterna round: R96, puzzle: Exclusion 4)	0.0385
CCAUAUAGGCGAGGAUAUACGCACCACUAACUAGUAGAAGGCGCACAUGAGGAUCACCCAUGUGAUUUCUCAAUAUUAUACAUC [Prohibition 72 - Jieux - Exclusion NG 1] (Eterna round: R96, puzzle: Exclusion NG 1)	0.107
ACAUGUCAUUGAGGAUAUUGCACACAUGAGGAUCACCCAUGUAUACGGUUGCUCUUACGUGAGUUCGAGAAGGCGAUGUACAUU [Ex NG2 #88] (Eterna round: R96, puzzle: Exclusion NG 2)	0.123
GCCCGGCCUGUAGGAUAUGGUUCCGUUUCGGUUCCAGAAGGACACGAGGAUACAUGAGGAUCACCCAUGUGCUCGUCACCGGGC [salish99_ExNG1_r04_403] (Eterna round: R96, puzzle: Exclusion NG 1)	0.0086
ACAUGAGGAUCACCCAUGUAAUGAAGGGUACUAUACUAAACGUAGGAUAUCGAUGUAAGAUUGAACGAGAAGGACGAUUGCCUU [JR_ExcNG3_Sub050] (Eterna round: R96, puzzle: Exclusion NG 3)	0.042
UUUUUUUAUGAAGGAUAUACUUAACAUGAGGAUCACCCAUGUGGUGUUGUGAGUGAGUGAGUUUAGUAGAAGGUCAAUUAUUUU [JMF's solution 23] (Eterna round: R96, puzzle: Exclusion NG 2)	0.379
ACAUGAGGAUCACCCAUGUGACCACAAUGGCUGAUGUAACAACAGGAUAUGCGUGAAUAUCUAACGCAGAAGGGUUUUGACUGG [Deportation 59 - Jieux - Exclusion NG 3] (Eterna round: R96, puzzle: Exclusion NG 3)	0.0715
